target-desc: human TAS2R4 (Homo sapiens)
Construct: expressed in transfected cells; host or cells: HEK293T-Gα16gust44
Sequence (Q9NYW5 whole entry): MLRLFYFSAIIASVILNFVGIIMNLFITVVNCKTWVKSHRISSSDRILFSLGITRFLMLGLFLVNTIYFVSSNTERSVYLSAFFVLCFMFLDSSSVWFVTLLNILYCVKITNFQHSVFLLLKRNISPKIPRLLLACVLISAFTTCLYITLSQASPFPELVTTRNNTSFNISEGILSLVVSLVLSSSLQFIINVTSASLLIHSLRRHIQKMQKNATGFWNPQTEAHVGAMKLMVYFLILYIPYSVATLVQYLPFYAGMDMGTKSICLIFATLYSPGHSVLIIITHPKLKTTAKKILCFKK
test-details: Calcium imaging assay (FLIPR), HEK293T-Gα16gust44 cells transfected with human TAS2R4; further: test concentration or dose not given here
Type: cell-based
condition-info: Time (s) 36.781 (TCA, TLCA: 36.782)
Short version: RLU, fluorescence trace at least 300 RLU is y, less is n.

Consider the worked cases shown below.
>  <smiles-notation>
C[C@H](CCC(=O)NCC(=O)O)[C@H]1CC[C@H]2[C@@H]3[C@H](O)C[C@@H]4C[C@H](O)CC[C@]4(C)[C@H]3C[C@H](O)[C@]12C

>  <qualitative-label>
y

$$$$
>  <smiles-notation>
C[C@H](CCC(=O)O)[C@H]1CC[C@H]2[C@@H]3[C@H](O)C[C@@H]4C[C@H](O)CC[C@]4(C)[C@H]3C[C@H](O)[C@]12C

>  <qualitative-label>
y

$$$$
>  <smiles-notation>
C[C@H](CCC(=O)O)[C@H]1CC[C@H]2[C@@H]3[C@@H](O)C[C@@H]4C[C@H](O)CC[C@]4(C)[C@H]3CC[C@]12C

>  <qualitative-label>
n

$$$$
>  <smiles-notation>
C[C@H](CCC(=O)NCCS(=O)(=O)O)[C@H]1CC[C@H]2[C@@H]3[C@H](O)C[C@@H]4C[C@H](O)CC[C@]4(C)[C@H]3C[C@H](O)[C@]12C

>  <qualitative-label>
y

$$$$
>  <smiles-notation>
C[C@H](CCC(=O)O)[C@H]1CC[C@H]2[C@@H]3CC[C@@H]4C[C@H](O)CC[C@]4(C)[C@H]3C[C@H](O)[C@]12C

>  <qualitative-label>
n

$$$$

Kindly determine if RLU, fluorescence trace recorded for `C[C@H](CCC(=O)NCCS(=O)(=O)O)[C@H]1CC[C@H]2[C@@H]3CC[C@@H]4C[C@H](O)CC[C@]4(C)[C@H]3CC[C@]12C` is above or exactly 300 RLU.
n
